testedSystem: T1, Ala mutant SEQ ID NO: 31 (human)
T1 sequence (peptide): EENMADQWMQDEMEIGY
methodDescription: ELISA, peptide on plate (10 ug/mL)

- binder: "G9 (antibody, IgG1, V domains shown) VH: AVTLDESGGGLQTPGGALSLVCKASGFTFSTYAMGWMRQAPGKGLEYVAAIRNDGSWTGYGAAVKGRATILRDNGQSTVRLQLSNLRAEDTGTYYCAKYTGSSGGSIGAWGHGTEVIVS VL: AVTQPASVSANLGGTVEITCSGGGRYYYGWYQQKSPGSAPVTVIYANDKRPSDIPSRFSGSKSGSTGTLTITGVQAEDEAVYFCGSAETSSYVFGAGTTLTVL"
  unitDescriptor: "OD"
  absorbance 490 nm/630 nm: 1.48
- binder: "A11 (antibody, IgG1, V domains shown) VH: AVTLDESGGGLQTPGGALSLVCKASGFDFSSYGMGWMRQAPGKGLEYVAAIRNDGSWTGYGAAVKGHATISRDNGQSTVRLQLNNLRAEDTGTYYCAKTTGSRGGSIDAWGHGTEVIVS VL: ASTQPSSVSANLGGTVEITCSGGGRYYYGWYQQKSPGSAPVTVIYANDKRPSDIPSRFSGSKSGSTGTLTITGVQAEDEAVYFCGSAETSSYVFGAGTTLTVL"
  unitDescriptor: "OD"
  absorbance 490 nm/630 nm: 1.67
- binder: "G6 (antibody, IgG1, V domains shown) VH: AVTLDESGGGLQTPGGALSLVCKASGFTFSSYGMEWVRQAPGKGLEYVAAIRNDGSWTGYGAAVKGRATISRDDGQSTLRLQLNNLRAEDTATYYCAKTTGSSGGSIDAWGHGTEVIVS VL: ASTQPSSVSANLGETVKITCSGGGNYYYGWYQQKSPGSAPVTLIYANDKRPSNIPSRFSGSKSGSTGTLTITGVQAEDEAVYFCGTADTGKYVFGAGTTLTVL"
  unitDescriptor: "OD"
  absorbance 490 nm/630 nm: 1.77

Sourced from patent US20230192890A1
